- assayed target: UniProt P70536
- protocol description: Oxytocin Receptor Binding
- recorded conditions: dose 1 μM
endpoint: inhibition at 1 µM (%)
The response must be a number in % with no trailing unit.

Examples with answers:
smiles_notation=O=C(Nc1ccc(C(=O)N2Cc3cccn3Cc3ccccc32)cn1)c1ccccc1Br value_unit=% recorded_result=89
smiles_notation=O=C(Nc1ccc(C(=O)N2Cc3cccn3Cc3ccccc32)cn1)c1ccccc1Cl value_unit=% recorded_result=90
smiles_notation=COc1ccc(CNc2ccc(C(=O)N3Cc4cccn4Cc4ccccc43)cn2)c(OC)c1 value_unit=% recorded_result=0
smiles_notation=Cc1ccc(F)cc1C(=O)Nc1ccc(C(=O)N2Cc3ccc(CN(C)C)n3Cc3ccccc32)cn1 value_unit=% recorded_result=8
smiles_notation=O=C(Nc1ccc(C(=O)N2Cc3cccn3Cc3ccccc32)c(Cl)c1)c1ccccc1-c1ccc(C(F)(F)F)cc1 value_unit=% recorded_result=0
smiles_notation=O=C(Nc1ccc(C(=O)N2Cc3cccn3Cc3ccccc32)cc1)c1ccccc1-c1ccccn1 value_unit=% recorded_result=74
smiles_notation=CN1CCN(c2ncccc2C(=O)Nc2ccc(C(=O)N3Cc4cccn4Cc4ccccc43)cc2)CC1 value_unit=% recorded_result=16
smiles_notation=Nc1ccccc1C(=O)Nc1ccc(C(=O)N2Cc3cccn3Cc3ccccc32)cn1 value_unit=% recorded_result=7
smiles_notation=Cc1ncccc1C(=O)Nc1ccc(C(=O)N2Cc3cccn3Cc3ccccc32)cc1 value_unit=% recorded_result=56

Hi! What's the reported inhibition at 1 µM for Cc1ccc(F)cc1C(=O)Nc1ccc(C(=O)N2Cc3cccn3-c3ncccc32)cn1 on UniProt P70536?
63

====

Consider the following compounds and their measured inhibition at 10 µM readings.
- assayed target: oxytocin receptors (Rattus norvegicus, UniProt P70536)
- Sequence (P70536 whole entry): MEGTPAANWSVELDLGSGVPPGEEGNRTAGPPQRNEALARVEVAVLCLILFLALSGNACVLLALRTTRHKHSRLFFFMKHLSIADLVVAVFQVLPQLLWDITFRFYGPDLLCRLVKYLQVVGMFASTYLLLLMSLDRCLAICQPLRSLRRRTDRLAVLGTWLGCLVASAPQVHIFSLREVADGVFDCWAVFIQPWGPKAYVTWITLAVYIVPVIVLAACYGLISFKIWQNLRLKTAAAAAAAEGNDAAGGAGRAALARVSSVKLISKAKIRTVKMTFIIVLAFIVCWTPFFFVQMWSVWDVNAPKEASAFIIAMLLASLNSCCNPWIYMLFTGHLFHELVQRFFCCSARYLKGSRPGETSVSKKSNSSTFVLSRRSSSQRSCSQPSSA
- protocol description: Oxytocin Receptor Binding
- recorded conditions: dose 10 μM
Returns: string containing the numeric result and its unit.

smiles_notation=O=C(Nc1ccc(C(=O)N2Cc3cccn3Cc3ccccc32)cc1)c1cccnc1N1CCOCC1 assayed_target="oxytocin receptors (Rattus norvegicus, UniProt P70536)" recorded_result=48%

Any idea what its inhibition at 10 µM is? The compound is CN(C)c1ncccc1C(=O)Nc1ccc(C(=O)N2Cc3cccn3Cc3ccccc32)cc1
98%

Can you handle Cc1ccc(F)cc1C(=O)Nc1ccc(C(=O)N2Cc3cccn3-c3ccccc32)cn1 next?
73%

Can you handle O=C(c1ccc(NCC2CCCCC2)nc1)N1Cc2cccn2Cc2ccccc21 next?
98%

Can you handle CC(C)(C)Nc1ccc(C(=O)N2Cc3cccn3Cc3ccccc32)cn1 next?
95%

Can you handle COc1cc(C(=O)Nc2ccc(C(=O)N3Cc4ccc(CN(C)C)n4Cc4ccccc43)cn2)cc(OC)c1OC next?
59%

Can you handle Cc1ncccc1C(=O)Nc1ccc(C(=O)N2Cc3cccn3Cc3ccccc32)c(Cl)c1 next?
85%

Can you handle Cc1ccc(F)cc1C(=O)N(CCN(C)C)c1ccc(C(=O)N2Cc3cccn3Cc3ccccc32)cn1 next?
57%

====

- assayed target: Human V2 Vasopressin Receptor (Homo sapiens)
- Construct: expressed in transfected cells; host or cells: mouse fibroblast cell line LV-2
- Sequence (P30518 whole entry): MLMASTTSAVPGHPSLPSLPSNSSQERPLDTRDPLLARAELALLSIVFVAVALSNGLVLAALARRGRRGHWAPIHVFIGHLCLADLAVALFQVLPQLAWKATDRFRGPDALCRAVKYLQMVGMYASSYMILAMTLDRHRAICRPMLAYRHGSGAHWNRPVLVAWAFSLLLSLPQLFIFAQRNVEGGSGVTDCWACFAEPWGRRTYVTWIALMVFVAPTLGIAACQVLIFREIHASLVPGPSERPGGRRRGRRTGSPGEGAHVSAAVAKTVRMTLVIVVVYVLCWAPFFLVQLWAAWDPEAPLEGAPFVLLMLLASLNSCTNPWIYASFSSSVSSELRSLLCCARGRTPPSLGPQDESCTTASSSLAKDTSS
- protocol description: Binding to Membranes of Mouse Fibroblast Cell Line (LV-2) Transfected with the cDNA Expressing the Human V2 Vasopressin Receptor
- recorded conditions: LV-2 cells transfected with human V2 receptor cDNA; Table 5; read-out: Vasopressin Binding Human V2 Receptor
Consider the following molecules and their measured IC50 readings.

smiles_notation=CN(C)Cc1ccc2n1Cc1ccccc1N(C(=O)c1ccc(NC(=O)C3=C(c4ccccc4)CCC3)cc1Cl)C2 recorded_result="0.0123 µM"
smiles_notation=CN(C)Cc1ccc2n1Cc1ccccc1N(C(=O)c1ccc(NC(=O)c3ccccc3-c3ccccc3)cc1O)C2 recorded_result="0.0159 µM"
smiles_notation=O=C(Nc1ccc(C(=O)N2Cc3cccn3Cc3ccccc32)c(Cl)c1)c1cccc2cccnc12 recorded_result="0.0691 µM"

Pending molecule:
Hi! What's the reported IC50 for O=C(Nc1ccc(C(=O)N2Cc3cccn3Cc3ccccc32)c(Cl)c1)c1ccccc1-n1cccc1 on Human V2 Vasopressin Receptor (Homo sapiens)?
0.0045 µM
